Data origin: patent US10065970B2

tested.target: PI3Kα (alpha) (Homo sapiens (Human))
Sequence (P42336 whole entry): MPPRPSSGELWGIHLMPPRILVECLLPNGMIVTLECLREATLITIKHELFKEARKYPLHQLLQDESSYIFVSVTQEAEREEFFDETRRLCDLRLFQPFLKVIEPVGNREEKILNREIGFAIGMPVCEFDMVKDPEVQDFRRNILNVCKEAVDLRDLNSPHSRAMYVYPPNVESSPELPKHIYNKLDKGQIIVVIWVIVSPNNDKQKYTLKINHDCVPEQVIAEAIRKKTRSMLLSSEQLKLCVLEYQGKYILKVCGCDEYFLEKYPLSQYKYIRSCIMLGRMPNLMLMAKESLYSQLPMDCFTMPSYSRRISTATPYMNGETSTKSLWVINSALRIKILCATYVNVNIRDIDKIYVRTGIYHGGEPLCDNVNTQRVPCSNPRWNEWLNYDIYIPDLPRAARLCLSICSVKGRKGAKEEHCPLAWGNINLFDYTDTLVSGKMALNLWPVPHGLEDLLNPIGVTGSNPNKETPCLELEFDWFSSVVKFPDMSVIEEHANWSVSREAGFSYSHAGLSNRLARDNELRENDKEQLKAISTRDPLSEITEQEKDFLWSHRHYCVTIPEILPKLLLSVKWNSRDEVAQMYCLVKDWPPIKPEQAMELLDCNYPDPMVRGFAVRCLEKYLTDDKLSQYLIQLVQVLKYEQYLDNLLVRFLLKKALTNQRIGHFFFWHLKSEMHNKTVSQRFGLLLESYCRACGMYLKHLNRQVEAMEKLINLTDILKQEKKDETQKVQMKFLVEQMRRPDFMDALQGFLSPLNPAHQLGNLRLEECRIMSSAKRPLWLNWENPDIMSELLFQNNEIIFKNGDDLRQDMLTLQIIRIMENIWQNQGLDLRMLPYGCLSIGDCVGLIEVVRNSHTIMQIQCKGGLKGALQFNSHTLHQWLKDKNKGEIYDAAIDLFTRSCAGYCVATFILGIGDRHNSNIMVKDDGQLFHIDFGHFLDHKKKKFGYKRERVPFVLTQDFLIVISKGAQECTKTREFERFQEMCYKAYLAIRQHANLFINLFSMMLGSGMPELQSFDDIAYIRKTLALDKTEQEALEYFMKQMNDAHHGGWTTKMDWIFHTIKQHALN
Sequence (P27986 whole entry partner): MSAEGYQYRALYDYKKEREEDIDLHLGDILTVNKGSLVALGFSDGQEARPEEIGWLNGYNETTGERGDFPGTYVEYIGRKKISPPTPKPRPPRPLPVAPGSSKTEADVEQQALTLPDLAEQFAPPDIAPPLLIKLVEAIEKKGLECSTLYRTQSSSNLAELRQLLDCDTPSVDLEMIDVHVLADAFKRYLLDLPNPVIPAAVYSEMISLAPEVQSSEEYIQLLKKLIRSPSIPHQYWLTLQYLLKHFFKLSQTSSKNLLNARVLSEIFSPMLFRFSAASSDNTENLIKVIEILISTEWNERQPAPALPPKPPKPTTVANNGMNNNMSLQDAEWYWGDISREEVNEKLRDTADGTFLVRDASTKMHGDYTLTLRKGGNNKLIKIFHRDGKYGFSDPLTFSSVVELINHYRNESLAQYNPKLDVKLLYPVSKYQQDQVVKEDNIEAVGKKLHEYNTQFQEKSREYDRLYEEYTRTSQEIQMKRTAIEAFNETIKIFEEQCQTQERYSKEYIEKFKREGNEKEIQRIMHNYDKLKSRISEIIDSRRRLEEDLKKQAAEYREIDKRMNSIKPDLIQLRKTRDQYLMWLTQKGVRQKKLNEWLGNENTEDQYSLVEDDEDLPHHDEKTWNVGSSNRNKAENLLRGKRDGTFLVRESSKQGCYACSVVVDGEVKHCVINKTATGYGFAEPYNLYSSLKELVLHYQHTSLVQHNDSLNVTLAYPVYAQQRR
experimental.protocol: p110α (alpha) PI3K Binding Assay (ADP-Glo lipid kinase reaction)
Type: biochemical
study.conditions: PI3K alpha 0.2 nM, ATP 40 μM, PIP2:3PS 50 μM, 120 min, room temperature; Ki by Morrison Equation; read-out: PI3Kα-(alpha) ATP (Ki) micromolar
Binary label based on Ki with cut-off 2 nM: below gives true (1), not below gives false (0).

• C[C@H](Oc1cc2c3c(c1)nc(-c1ccc4oc(N)nc4c1F)n3CCCCO2)C(N)=O = true (1)
• C[C@H](Oc1cc2c3c(c1)nc(-c1ccc4nc(N)sc4n1)n3CCCCO2)C(N)=O = true (1)
• C[C@H](Oc1cc2c3c(c1)nc(-c1ccc(-c4nc[nH]n4)cc1)n3CCCCO2)C(N)=O = true (1)
• NC(=O)[C@@H](Nc1cc2c3c(c1)nc(-c1ccc4[nH]c(=O)oc4c1)n3CCCO2)C1CC1 = false (0)

IN: Take the compound NC(=O)[C@@H]1CCCN1c1cc2c3c(c1)nc(-c1ccnc4[nH]nnc14)n3CCCO2 and say whether its Ki is less than 2 nM.
OUT: false (0)

IN: Take the compound CC[C@H](Oc1cc2c3c(c1)nc(-c1cc(F)c4nc(N)sc4c1)n3CCCCO2)C(N)=O and say whether its Ki is less than 2 nM.
OUT: true (1)

IN: Take the compound COC[C@](C)(C(N)=O)n1cc(-c2cc3c4c(c2)nc(-c2ccc5oc(N)nc5c2)n4CCCO3)cn1 (single isomer, unassigned) and say whether its Ki is less than 2 nM.
OUT: true (1)

IN: Take the compound C[C@H](Oc1cc2c3c(c1)nc(-c1ccc4nc(N)sc4c1)n3CCCO2)C(N)=O and say whether its Ki is less than 2 nM.
OUT: false (0)

IN: Take the compound C[C@H](Oc1cc2c3c(c1)nc(-c1cc(F)c4nc(N)sc4c1)n3CCCCO2)C(N)=O and say whether its Ki is less than 2 nM.
OUT: true (1)

IN: Take the compound C[C@H](Nc1cc2c3c(c1)nc(-c1cccnc1)n3CCCO2)C(N)=O and say whether its Ki is less than 2 nM.
OUT: false (0)
